target: cAMP-dependent protein kinase catalytic subunit alpha (Homo sapiens, UniProt P17612); test: inhibition of cAMP-dependent kinase PKA – biochemical, Kinase-Glo luminescence, Kemptide substrate, dose response (AID 548)
experimental readout: IC50 (µM)

Cc1c2ccncc2c(C)c2c1[nH]c1ccccc12 [5,11-dimethyl-2H-pyrido[4,3-b]carbazole]; 4.09
c1ccc2c(-c3ccncc3)c[nH]c2c1; 11.3
COc1cc2c(cc1NC(=O)COC(=O)Cn1cnc3ccccc31)oc1ccccc12; 37.5
c1ccc(CCCNc2[nH]cnc3ncnc2-3)cc1; 39.5
Cc1cc2c(ccc3[nH]onc32)n1 [MLS000038925]; 50.5
CC(=O)n1cc(-c2ccncc2)c2ccccc21; 45

(A) O=C(CSc1nnc(-c2ccncc2)[nH]1)c1ccccc1
(B) CCC1CCCCN1c1nc(-c2ccncc2)nc2ccccc12 (stereo unspecified)
Sorting by IC50 in descending order, would A or B appear first? Mark your selection by writing its label.
A

(1) Fc1ccccc1N1CCN(c2ncnc3n[nH]cc23)CC1
(2) c1nc(N2CCCC2)c2[nH]cnc2n1 [6-(1-pyrrolidinyl)-7H-purine]
(3) c1nc(NC2CCCCC2)c2[nH]cnc2n1 [N-cyclohexyl-7H-purin-6-amine]
Endpoint returns the given compounds ordered by ascending IC50. In your reply, arrange the labels in the requested order.
3, 2, 1
(3: 8.94 µM, 2: 35.6 µM, 1: 52.3 µM)

(a) Clc1ccc(OCCN2CCN(c3ncnc4sccc34)CC2)cc1
(b) Cc1ccc(S(=O)(=O)NCCSc2nnnn2-c2ccc(C(N)=O)cc2)cc1
# min-compare on IC50 between a and b Mark your selection by writing its label.
b

* * *

Measured IC50 accompanies every entry in the list below.
target: cAMP-dependent protein kinase catalytic subunit alpha (Homo sapiens, UniProt P17612); test: inhibition of cAMP-dependent kinase PKA – biochemical, Kinase-Glo luminescence, Kemptide substrate, dose response (AID 548)

c1ccc(Cn2ncc3c2ncn2nc(-c4ccncc4)nc32)cc1; > 19.9 µM
C1=C(c2c[nH]c3ccccc23)CCNC1; > 59.6 µM
Nc1c(S(=O)(=O)c2cccc(Cl)c2)c2c(n1N=CC1=CC(=O)C(=O)C=C1)Nc1ccccc1N2; > 59.6 µM

Request - read-out IC50 | tested on cAMP-dependent protein kinase catalytic subunit alpha (Homo sapiens, UniProt P17612) | compound COc1ccc2c(Cl)c(C(N)=O)sc2c1
> 59.6 µM

Request - read-out IC50 | tested on cAMP-dependent protein kinase catalytic subunit alpha (Homo sapiens, UniProt P17612) | compound Cc1ccc(SCc2nc(-c3ccncc3)no2)cc1
> 59.6 µM

Request - read-out IC50 | tested on cAMP-dependent protein kinase catalytic subunit alpha (Homo sapiens, UniProt P17612) | compound Nc1[nH]nc2nc(N3CCCC3)nc(-c3ccccc3)c12
> 59.6 µM

Request - read-out IC50 | tested on cAMP-dependent protein kinase catalytic subunit alpha (Homo sapiens, UniProt P17612) | compound CCOc1ccc2nc3ccc4[nH]onc4c3c2c1
> 59.6 µM

Request - read-out IC50 | tested on cAMP-dependent protein kinase catalytic subunit alpha (Homo sapiens, UniProt P17612) | compound Cn1c(SCc2ccc(Br)cc2)nnc1-c1ccncc1
> 59.6 µM

* * *

Measured pIC50 accompanies every entry in the list below.
target: cAMP-dependent protein kinase catalytic subunit alpha (Homo sapiens); assay: inhibition of cAMP-dependent kinase PKA – biochemical, Kinase-Glo luminescence, Kemptide substrate, dose response (AID 548)
pIC50: −log10 of the molar value.

Fill in: pIC50 of Cc1cc2ccccc2c(=O)n1CC(=O)Nc1ccc2c(c1)OCO2 is ___
< 4.22

Fill in: pIC50 of Fc1cc2nc(-c3ccncc3)[nH]c2cc1F is ___
< 4.22

Fill in: pIC50 of Nc1nonc1-n1nncc1-c1ccccc1 is ___
< 4.22

Fill in: pIC50 of CN(C(=O)COc1ccccc1)c1nnc(-c2ccncc2)s1 is ___
< 4.22

Fill in: pIC50 of Cc1cccc(NC(=O)CSc2n[nH]c(-c3ccncc3)n2)c1 is ___
< 4.22

Fill in: pIC50 of CCc1cc2c(O)ncnc2s1 is ___
< 4.22

Fill in: pIC50 of CCN1CCN(Cc2nnnn2C(C)(C)C)CC1 is ___
< 4.22

Fill in: pIC50 of O=NCc1c[nH]c2ccccc12 is ___
4.46

Fill in: pIC50 of c1ccc(Cn2ncc3c2ncn2c(-c4ccncc4)nnc32)cc1 is ___
< 4.70

Fill in: pIC50 of O=C(CCCOc1ccccc1)Nc1ccncc1 [4-Phenoxy-N-pyridin-4-yl-butyramide] is ___
< 4.22
